- Tested on: MILI (PIWIL2) piRISC loaded with L1MC piRNA (26 nt);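 further: 1 nM active piRISC with 0.1 nM target library at 33 °C single turnover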
- ASSAY OVERVIEW: pre-steady-state target cleavage rate (min^-1); guide: L1MC piRNA 5'p-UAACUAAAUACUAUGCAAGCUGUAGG; MIWI and MILI are mouse PIWI proteins and EfPiwi is from a freshwater sponge; tags in brackets are library labels; higher = faster piRNA-guided slicing of the target
- CONDITION SET: auxiliary factor: none (no GTSF1)
Recorded measurements of pre-steady-state target cleavage rate, one per entry
ENDPOINT: pre-steady-state target cleavage rate

record_sequence=UCCUGGAUGAGCUUGCAUAGUAUUAUAGUUA reported_measurement=0.00494
record_sequence=UCCUGGAUGUGCUUGCAUAGAUAUUUAGUUA reported_measurement=0.00495
record_sequence=UCCUGGAUGUCCUUGCAAAGUAUUUAGUUA reported_measurement=0.00687
record_sequence=UCCUGGAUGUCCUUGCAAAGUAUUAAGUUA reported_measurement=0.00691
record_sequence=UCCUCCAUGAGCUUGCAUAGUAUUUAGUUA reported_measurement=0.00711
record_sequence=UCCUGGAUCAGCUUGCAUAGUAAUUUAGUUA reported_measurement=0.00701
record_sequence=UCCUGGAACAGCUUGCAUAGUGAUUUAGUUA reported_measurement=0.00499
record_sequence=UCCUGGAACAGCUUGCGUAGUAUUUAGUUA reported_measurement=0.00716
record_sequence=UCCUGGAUGAGCUGCAUAGUAUUUAGUUA reported_measurement=0.00501
record_sequence=UCCUGCUACAGCCUGCAUAGUAUUUAGUUA reported_measurement=0.00704

All figures here come from the supplement of paper PMC10338343.
